FYI, the data here is from ChEMBL document CHEMBL5543127.

procedure-text: Inhibition of quorum sensing system in Pseudomonas aeruginosa PAO1 at logarithmic growth period assessed as inhibition of pyocyanin production at 102.4 microg/ml incubated for 18 hrs by pyocyanin inhibition assay
run-parameters: dose 102.4 µg/ml
Activity calls are given as the source filed them. The rule behind the calls is not given here.
reported-endpoint: inhibition

Examples with answers:
1. Cn1/c(=N/NC(=O)c2cccc(Cl)c2)sc2ccccc21 | 40.1%
2. O=C(CCCCCOc1cccc(F)c1)NNc1nc2ccccc2o1 | inactive
3. O=C(CCCCOc1ccc(F)cc1)NNc1nc2ccc(Cl)cc2o1 | Active
4. O=C(CCCCOc1cccc(F)c1)NNc1nc2ccccc2o1 | Active
5. O=C(CCCCOc1ccc(F)cc1)NNc1nc2ccccc2s1 | Active
6. COc1ccc(/C=N/Nc2nc3ccccc3o2)cc1OC | 40.3%

Problem: For `COc1ccccc1/C=N/Nc1nc2ccccc2o1` , write its inhibition.
Result: inactive

Problem: Give me measured inhibition, please, for this compound: `O=C(CCCCCOc1ccc(Cl)cc1)NNc1nc2ccccc2o1`
Result: inactive

---

Tested on: Pseudomonas aeruginosa
procedure-text: Anti-microbial activity against Pseudomonas aeruginosa PAO1 incubated for 20 hrs By CLSI based micro-dilution method
Type: functional
Each entry below lists one item and its recorded MIC value.

1. CC[C@H]1OC(=O)[C@H](C)[C@@H](O[C@H]2C[C@@](C)(OC)[C@@H](O)[C@H](C)O2)[C@H](C)[C@@H](O[C@@H]2O[C@H](C)C[C@H](N(C)C)[C@H]2O)[C@](C)(O)C[C@@H](C)CN(C)[C@H](C)[C@@H](O)[C@]1(C)O | 256 µg/mL
2. COc1ccccc1C(=O)N/N=c1\sc2ccccc2n1C | > 512 µg/mL

Next up:
Problem: Specify MIC for `Cc1ccc(C(=O)NNc2nc3ccccc3s2)cc1` , system Pseudomonas aeruginosa.
Result: > 512 µg/mL

---

System: Pseudomonas aeruginosa
procedure-text: Inhibition of protease in logarithmic growth phase Pseudomonas aeruginosa PAO1 assessed as inhibition rate at 102.4 microg/ml measured after 32 hrs
run-parameters: dose 102.4 µg/ml
Active and inactive are the calls of the source. The calls are words filed in the database; no cut-off is given here.
reported-endpoint: inhibition

Worked set:
1) O=C(COc1cccc(F)c1)NNc1nc2ccccc2o1 | 10%
2) O=C(CCCCOc1ccc(Cl)cc1)NNc1nc2ccc(Cl)cc2o1 | inactive
3) Cn1/c(=N/NC(=O)c2ccc(F)cc2)sc2ccccc21 | > 20%
4) O=C(CCCOc1ccc(Cl)cc1)NNc1nc2ccccc2o1 | 30%
5) COc1ccc(/C=N/Nc2nc3ccccc3o2)cc1OC | 21.9%
6) O=C(CCCCOc1ccc(F)cc1)NNc1nc2ccccc2o1 | inactive

Problem: Specify measured inhibition for `COc1ccc(OCCCCC(=O)NNc2nc3ccccc3o2)cc1` .
Result: 14.6%

Problem: Dear colleague, please send me the reported inhibition for `CCCCCCCCCCCC(=O)N/N=c1\sc2ccccc2n1C` when you can.
Result: > 20%

---

procedure-text: Inhibition of quorum sensing system in Pseudomonas aeruginosa PAO1 at logarithmic growth period assessed as inhibition of pyocyanin production at 102.4 microg/ml incubated for 18 hrs by pyocyanin inhibition assay
run-parameters: dose 102.4 µg/ml
Active and inactive are the calls of the source. No cut-off for these calls is given here.
reported-endpoint: inhibition

Field: example entries. Status: answers known.
1. Cc1cccc(C(=O)NNc2nc3ccccc3s2)c1 | 62.8%
2. O=C(COc1ccc(Cl)cc1)NNc1nc2ccccc2o1 | 46.9%
3. O=C(CCCOc1ccc(F)cc1)NNc1nc2ccccc2o1 | inactive
4. Clc1cccc(/C=N/Nc2nc3ccccc3o2)c1 | inactive
5. O=C(CCCOc1cccc(C(F)(F)F)c1)NNc1nc2ccccc2o1 | inactive
6. Cc1ccc(C(=O)NNc2nc3ccccc3s2)cc1 | 62.8%

Problem: Please look at this compound and report its inhibition: `CC(C)c1ccc(/C=N/Nc2nc3ccccc3o2)cc1`
Result: inactive

Problem: Please list inhibition recorded for the compound `O=C(CCCCOc1ccc(F)cc1)NNc1nc2ccccc2o1`
Result: 53.6%

Problem: Provide only the value of recorded inhibition for `COc1ccc(OCCCCCC(=O)NNc2nc3ccccc3o2)cc1`
Result: inactive

Problem: Quick one: give measured inhibition for `COc1ccc(OCCCC(=O)NNc2nc3ccccc3o2)cc1`
Result: inactive
